test system: NCI-H1703 cells; assay: GLS Cell Proliferation Assay (NCI-H1703 cell proliferation); format: cell-based; conditions: NCI-H1703 cells, 5 days; read-out: Assay c) Prolif Mean IC50
pIC50: −log10 of the molar value.
Readout Name: pIC50

Use these answered entries as a reference point.
- Molecule: "COc1cc(OC(F)(F)F)cc([C@H](OC)C(=O)Nc2nnc(N[C@@H]3CCN(c4cccnn4)C3)s2)c1 (single isomer, unassigned)"
  Readout Name: "pIC50"
  Numeric Value: 8.98
- Molecule: "CO[C@H](C(=O)Nc1nnc(N[C@@H]2CCN(c3nccnn3)C2)s1)c1cccc(N2CC(F)(F)C2)c1 (single isomer, unassigned) [14(b)]"
  Readout Name: "pIC50"
  Numeric Value: 6.81
- Molecule: "COC[C@H](C(=O)Nc1nnc(N[C@@H]2CCN(c3cccnn3)C2)s1)c1cccc(OC)c1 (single isomer, unassigned) [5(b)]"
  Readout Name: "pIC50"
  Numeric Value: 6.92
- Molecule: "COC1CN(c2cccc([C@H](OC)C(=O)Nc3nnc(N[C@@H]4CCN(c5ccc(C)nn5)C4)s3)c2)C1 (single isomer, unassigned) [Example 12(a)]"
  Readout Name: "pIC50"
  Numeric Value: 7.48
- Molecule: "COC1CN(c2cccc([C@H](OC)C(=O)Nc3nnc(N[C@@H]4CCN(c5nccnn5)C4)s3)c2)C1 (single isomer, unassigned)"
  Readout Name: "pIC50"
  Numeric Value: 6.30
- Molecule: "CCOC(C(=O)Nc1nnc(N[C@@H]2CCN(c3cccnn3)C2)s1)c1cccc(N2CC(F)C2)c1 (single isomer, unassigned) [Example 32]"
  Readout Name: "pIC50"
  Numeric Value: 7.01

I: COC(C(=O)Nc1nnc(N[C@@H]2CCN(c3ccc(C)nn3)C2)s1)c1cccc(N2CC(F)(F)C2)c1 (stereo partly drawn) [Example 40]
II: CO[C@H](C(=O)Nc1nnc(N[C@@H]2CCN(c3cccnn3)C2)s1)c1ccc(F)c(OC(F)(F)F)c1 (single isomer, unassigned) [20(b)]
III: CCOC(C(=O)Nc1nnc(N[C@@H]2CCN(c3cccnn3)C2)s1)c1cccc(N2CC(OC)C2)c1 (stereo partly drawn) [Example 33]
IV: CCO[C@H](C(=O)Nc1nnc(N[C@@H]2CCN(c3cccnn3)C2)s1)c1cccc(OC(F)F)c1 (single isomer, unassigned) [17(b)]
q: Arrange these molecules by their pIC50, starting with the largest number. Ranked list of labels, please, in the requested order.
a: II, III, IV, I
